Attribution: patent US9637473B2

Tested on: P. Falciparum NF54
Assay: Plasmodium falciparum in vitro assay ([3H]-hypoxanthine incorporation)
Type: cell-based
Details: Plasmodium falciparum, Erythrocyte, P. Falciparum NF54, erythrocytic stages in human red blood cells, 50% human serum
Where a name gives a salt, the structure may show the parent alone.
# note: boundary value 200 nM maps to no (0); IC50 below it maps to yes (1)

Check if IC50 falls below 200 nM for `CN(c1ccncc1)c1ccc(CN(C(=O)/C=C/c2ccc(C(F)(F)F)cc2)C2CCN(Cc3ccccn3)CC2)cc1` . yes (1)

Check if IC50 falls below 200 nM for CC(C)N1CCC(N(Cc2cncc(N(C)c3cccnc3)c2)C(=O)/C=C/c2ccc(C(F)(F)F)cc2)CC1 [Example 134, formate] . no (0)

Check if IC50 falls below 200 nM for `Cn1ccc(-c2ccc(CN(C(=O)/C=C/c3ccc(C(F)(F)F)cc3)C3CCN(C4CCCC4)CC3)cc2)n1` . no (0)

Check if IC50 falls below 200 nM for CC(C)N1CCC(N(Cc2cccc(Nc3ccncc3F)n2)C(=O)/C=C/c2ccc(C(F)(F)F)cc2)CC1 [Example 131, formate] . no (0)

Check if IC50 falls below 200 nM for `CC(C)CCN1CCC2(CCC(N(Cc3ccc(N(C)c4ccncc4)cc3)C(=O)/C=C/c3ccc(C(F)(F)F)cc3)CC2)CC1` . yes (1)

Check if IC50 falls below 200 nM for `Cc1cc(Nc2ccc(CN(C(=O)/C=C/c3ccc(C(F)(F)F)cc3)C3CCN(Cc4scnc4C)CC3)cc2)ccn1` . no (0)

Check if IC50 falls below 200 nM for `O=C(/C=C/c1ccc(C(F)(F)F)cc1)N(Cc1ccc(-c2cncnc2)cc1)C1CCN(C2CCCC2)CC1` . no (0)

====

Task for the reader: assign each of the following compounds its reported IC50.
Test system: P. Falciparum NF54
Experiment: Plasmodium falciparum in vitro assay ([3H]-hypoxanthine incorporation)
Format: cell-based
Details: Plasmodium falciparum, Erythrocyte, P. Falciparum NF54, erythrocytic stages in human red blood cells, 50% human serum
Counter-ions that a name gives are not always drawn.
Number only, in µM; omit the unit.

# input compound: `CN1CCC(N(C)c2ccc(CN(C(=O)/C=C/c3ccc(C(F)(F)F)cc3)C3CCN(C4CCCC4)CC3)cn2)CC1` ; wanted: its IC50 0.348

# input compound: `Cc1cc(Nc2ccc(CN(C(=O)/C=C/c3ccc(C(F)(F)F)cc3)C3CCN(C4CCCC4)CC3)cc2)c2ccccc2n1` ; wanted: its IC50 0.043

# input compound: `O=C(/C=C/c1ccc(C(F)(F)F)cc1)N(Cc1ccc(-c2cccnc2)cc1)C1CCN(C2CCCC2)CC1` ; wanted: its IC50 0.184

# input compound: CN(c1ccncc1)c1ccc(CN(C(=O)/C=C/c2ccc(C(F)(F)F)cc2)[C@@H]2CCN(C3CCCC3)C[C@H]2F)cc1 (racemic) ; wanted: its IC50 0.105

# input compound: CC(C)N1CCC(N(Cc2cncc(Nc3ccncc3)c2)C(=O)/C=C/c2ccc(C(F)(F)F)cc2)CC1 [Example 141, formate] ; wanted: its IC50 0.082

# input compound: CC(C)N1CCC(N(Cc2cccc(Nc3ccncc3)c2)C(=O)/C=C/c2ccc(C(F)(F)F)cc2)CC1 [Example 126, formate] ; wanted: its IC50 0.03

# input compound: `Cc1cc(Nc2ccc(CN(C(=O)/C=C/c3ccc(C(F)(F)F)cc3)C3CCN(Cc4cnc(C)n4C)CC3)cc2)ccn1` ; wanted: its IC50 0.143
